Reference source: ChEMBL document CHEMBL1137812

System: Leishmania major
Assay: Antileishmanial activity against Leishmania major LV39 promastigotes after 96 hrs by MTT assay
Assay type: functional, organism-based
Conditions: LV39, 96 h
Exercise: for every item that follows, state its recorded IC50.
A number alone suffices; assume µM.

C/C=C/C1=C(OC)C(=O)C(OC)=C(OC)C1=O on Leishmania major gives IC50 = 72

Test item COc1ccc([C@@H]2COc3c(ccc(O)c3CC=C(C)C)C2)c(OC)c1O ; Leishmania major; reported IC50 was 7.9

# lookup: C[C@@H]1[C@H](O)[C@@H](C)/C=C/C=C/C=C/C=C/C=C/C=C/C=C/[C@H](O[C@@H]2O[C@H](C)[C@@H](O)[C@H](N)[C@@H]2O)C[C@@H]2O[C@](O)(C[C@@H](O)C[C@@H](O)[C@H](O)CC[C@@H](O)C[C@@H](O)CC(=O)O[C@H]1C)C[C@H](O)[C@H]2C(=O)O [AMPHOTERICIN B] on Leishmania major, IC50 = 0.03

GET /values?item= COc1ccc([C@@H]2COc3c(ccc4occc34)C2)c(OC)c1O [SMIRANICIN] &system= Leishmania major returns IC50: 17.4

Leishmania major IC50 of COc1ccc([C@@H]2COc3c(ccc4c3C=CC(C)(C)O4)C2)c(OC)c1O [GLYASPERIN H] is 23.7

Hey, Leishmania major data for C/C=C/c1cc(OC)c(OC)c(O)c1OC : IC50 came out at 387

Value sought: IC50, system Leishmania major, item C/C=C/c1cc(O)c(OC)c(OC)c1 . Result: 372
